Please find below pIC50 data on UniProt P00748 compiled from the literature.
pIC50: −log10 of the molar value.

Example entries and their recorded answers appear below.
Nc1nccc2cc(CNC(=O)c3cc(Cl)c(CNCc4cccnc4)s3)ccc12 5.00 to 5.52
CN1CCC(OCc2ccc(NCc3ccc4c(N)nccc4c3)nc2)CC1 > 6.00
CN1CCC(CNc2nccnc2C(=O)NCc2ccc3c(N)nccc3c2)CC1 6.00 to 6.52

Incoming: Look at this compound and give its reported pIC50. CN(C)CCCOc1cccc(CNCc2sc(C(=O)NCc3ccc4c(N)nccc4c3)cc2Cl)c1
Outgoing: 5.00 to 5.52

Incoming: Subsequent entry: Cc1cc(NCC2CCN(C)CC2)c(C(=O)NCc2ccc3c(N)nccc3c2)s1
Outgoing: 5.52 to 6.00

Incoming: Subsequent entry: Cn1cnc2cc(Oc3ncc(Cl)cc3C(=O)NCc3ccc4c(N)nccc4c3)ccc21
Outgoing: 4.40 to 5.00
